Experiment: qHTS assay for identifying genotoxic compounds that show differential cytotoxicity against isogenic chicken DT40 cell lines with known DNA damage response pathways - Rad54/Ku70 mutant cell line (AID 743015); also: nearly all actives have a fitted effect of over 60% in size
Settings: DT40 Rad54/Ku70 mutant viability, CellTiter-Glo, 40 h; series mostly up to 66.8 µM
Excerpt: National Center for Advancing Translational Sciences [NCATS] NIH Chemical Genomics Center [NCGC] U.S. Environmental Protection Agency [EPA] National Institutes of Environmental Health Sciences [NIEHS] National Toxicology Program [NTP] U.S. Food and Drug Administration [FDA] DNA repair pathways play a critical role in cellular homeostasis by repairing DNA damage induced by endogenous processes and xenobiotics. […]
Records with an inconclusive call do not appear. Activity calls are given as the source filed them. Calls follow the shape of the dose curve; as a rule, active = well fitted cell-killing curve with a large enough effect in the repeat runs; inconclusive = weak or mixed curves; inactive = no such curve, though single readings can be large or run the other way.
Thanks in advance; please answer with one of these: yes (1) for active, no (0) for inactive

Record excerpt, results attached:
CCOC(=O)CCC(=O)O[C@H]1[C@H](O[C@@H]2[C@@H](C)[C@H](O[C@H]3C[C@@](C)(OC)[C@@H](O)[C@H](C)O3)[C@@H](C)C(=O)O[C@H](CC)[C@@](C)(O)[C@H](O)[C@@H](C)C(=O)[C@H](C)C[C@@]2(C)O)O[C@H](C)C[C@@H]1N(C)C :: no (0)
CS(=O)(=O)NC(=O)CCC/C=C\C[C@H]1C(=O)C[C@@H](O)[C@@H]1/C=C/[C@H](O)COc1ccccc1 :: no (0)
CC[C@H](C)[C@H]1O[C@]2(CC[C@@H]1C)C[C@@H]1C[C@@H](C/C=C(\C)[C@@H](O[C@H]3C[C@H](OC)[C@@H](O[C@H]4C[C@H](OC)[C@@H](O)[C@H](C)O4)[C@H](C)O3)[C@@H](C)/C=C/C=C3\CO[C@@H]4[C@H](O)C(C)=C[C@@H](C(=O)O1)[C@]34O)O2 :: yes (1)
CC(=O)O[C@H]1C[C@@H]2CC[C@@H]3[C@H](CC[C@@]4(C)[C@H]3C[C@H](N3CC[N+](C)(C)CC3)[C@@H]4OC(C)=O)[C@@]2(C)C[C@@H]1N1CC[N+](C)(C)CC1 :: no (0)

Field: outcome | Entry: O=C(Cn1c(=O)sc2ccc(Cl)cc21)N1CCN(CCO)CC1
no (0)

Field: outcome | Entry: CCC(C)(C)OC(=O)N[C@@H](Cc1c[nH]c2ccccc12)C(=O)N[C@@H](CCSC)C(=O)N[C@@H](CC(=O)O)C(=O)N[C@@H](Cc1ccccc1)C(N)=O
no (0)

Field: outcome | Entry: O=C(O)CCC/C=C\C[C@@H]1[C@@H](/C=C/[C@@H](O)COc2cccc(C(F)(F)F)c2)[C@H](O)C[C@@H]1O
no (0)

Field: outcome | Entry: CCCCCCCCCCCCCCCC(=O)OC[C@@H](NC(=O)C(Cl)Cl)[C@H](O)c1ccc([N+](=O)[O-])cc1
no (0)

Field: outcome | Entry: [O]=[Bi][O][Bi]=[O]
no (0)

Field: outcome | Entry: O=C1NCCN1c1ncc([N+](=O)[O-])s1
no (0)

Field: outcome | Entry: CC(C)CN(C[C@@H](O)[C@H](Cc1ccccc1)NC(=O)O[C@H]1CO[C@H]2OCC[C@H]21)S(=O)(=O)c1ccc(N)cc1
yes (1)

Field: outcome | Entry: O=C(O)CCC/C=C\C[C@@H]1[C@@H](/C=C/[C@@H](O)COc2cccc(Cl)c2)[C@H](O)C[C@@H]1O
no (0)

Field: outcome | Entry: CCCC(=O)O[C@]1(C(=O)COC(=O)CC)[C@@H](C)C[C@H]2[C@@H]3CCC4=CC(=O)C=C[C@]4(C)[C@@]3(F)[C@@H](O)C[C@@]21C
yes (1)

Field: outcome | Entry: C[C@]12CC[C@@H]3c4ccc(OS(=O)(=O)O)cc4CC[C@H]3[C@@H]1CCC2=O
no (0)

Field: outcome | Entry: c1ccc2c(c1)Sc1ccccc1N2CCN1CCCC1
yes (1)

Field: outcome | Entry: CCCN(CC)C(CC)C(=O)Nc1c(C)cccc1C (stereo not drawn)
no (0)

Field: outcome | Entry: C=C[C@]1(C)C[C@@H](OC(=O)CSCCN(CC)CC)[C@]2(C)[C@H](C)CC[C@]3(CCC(=O)[C@H]32)[C@@H](C)[C@@H]1O
yes (1)

Field: outcome | Entry: CNC(=O)[C@H](Cc1c[nH]c2ccccc12)NC(=O)[C@@H](CC(=O)NO)CC(C)C
yes (1)

Field: outcome | Entry: CCC(C)C(C(=O)OCC[N+](C)(CC)CC)c1ccccc1 (stereo not drawn)
yes (1)

Field: outcome | Entry: COc1cc(C[C@@H]2NCCc3cc(O)c(O)cc32)cc(OC)c1OC
no (0)

Field: outcome | Entry: CC(=O)O[C@H]1C(=O)[C@@]2(C)[C@H]([C@H](OC(=O)c3ccccc3)[C@]3(O)C[C@H](OC(=O)[C@H](O)[C@@H](NC(=O)c4ccccc4)c4ccccc4)C(C)=C1C3(C)C)[C@]1(OC(C)=O)CO[C@@H]1C[C@@H]2O
yes (1)

Field: outcome | Entry: CO[C@@H]1[C@@H](O[C@@H]2O[C@H](C)[C@@H](O[C@H]3C[C@@](C)(O)[C@@H](OC(=O)CC(C)C)[C@H](C)O3)[C@H](N(C)C)[C@H]2O)[C@@H](CC=O)C[C@@H](C)C(=O)/C=C/C2OC2C[C@@H](C)OC(=O)C[C@H]1OC(C)=O (stereo partly drawn)
yes (1)

Field: outcome | Entry: Cc1c(O)cc2c(c1C)O[C@](C)(CCC[C@H](C)CCC[C@H](C)CCCC(C)C)CC2
no (0)

----------
Assay: qHTS assay to identify aromatase inhibitors - cell viability counter screen (AID 743084);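 also: cells stimulated with testosterone during compound exposure; nearly all actives have a fitted effect of over 55% in size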
Settings: MCF-7 aro ERE viability, CellTiter-Fluor, 24 h; series mostly up to 70.3 µM
Inconclusive results are not listed. Calls of active or inactive are those of the source. The call rests on the fitted dose curve; in most records, active means well fitted cell-killing curve with a large enough effect in the repeat runs; inconclusive means weak or mixed curves, or effect the other way; inactive means no such curve, though single readings can be large or run the other way.
Thanks in advance; please answer with one of these: active, inactive

COc1cc([C@@H]2c3cc4c(cc3C(O[C@@H]3O[C@@H]5CO[C@@H](C)O[C@H]5[C@H](O)[C@H]3O)C3COC(=O)[C@@H]32)OCO4)cc(OC)c1OP(=O)(O)O (stereo not given in full) :: inactive
CN(C)CC/C=C1/c2ccccc2CSc2ccccc21 :: inactive

Field: outcome | Entry: CCOC(=O)c1c[nH]c2cc(OCC(C)C)c(OCC(C)C)cc2c1=O
inactive

Field: outcome | Entry: CCCOc1ccc2nc(NC(=O)OC)sc2c1
inactive

Field: outcome | Entry: Nc1nc2c(c(=O)[nH]1)N(C=O)C(CNc1ccc(C(=O)N[C@@H](CCC(=O)O)C(=O)O)cc1)CN2 (stereo not given in full)
inactive

Field: outcome | Entry: COc1ccc(CCNCC(O)COc2cccc(C)c2)cc1OC (stereo not given)
inactive

Field: outcome | Entry: C#C[C@]1(O)CC[C@H]2[C@@H]3CCC4=CCCC[C@@H]4[C@H]3C(=C)C[C@@]21CC
inactive

Field: outcome | Entry: C/C=C1\NC(=O)[C@H]2CSSCC/C=C/[C@H](CC(=O)N[C@H](C(C)C)C(=O)N2)OC(=O)C(C(C)C)NC1=O (stereo not given in full)
active

Field: outcome | Entry: CC(=O)O[C@H]1CC[C@@]2(C)C(=CC[C@H]3[C@@H]4CC[C@H](C(C)=O)[C@@]4(C)CC[C@@H]32)C1
inactive

Field: outcome | Entry: C[C@H](CCCC(C)(C)O)[C@H]1CC[C@H]2[C@@H]3CC=C4C[C@@H](O)CC[C@]4(C)[C@H]3CC[C@]12C
inactive

Field: outcome | Entry: CS(=O)(=O)Nc1cc2occ(NC=O)c(=O)c2cc1Oc1ccccc1
inactive

Field: outcome | Entry: CCCCCCCCCCCC(=O)N(CCO)CCO
inactive

Field: outcome | Entry: CCCCCCCCCCCCCCCC(=O)OC[C@@H](NC(=O)C(Cl)Cl)[C@H](O)c1ccc([N+](=O)[O-])cc1
inactive

Field: outcome | Entry: CCCCC/C=C\CCC(=O)N[C@H]1[C@H](Oc2c3cc4cc2Oc2ccc(cc2Cl)[C@@H](O[C@@H]2O[C@H](CO)[C@@H](O)[C@H](O)[C@H]2NC(C)=O)[C@@H]2NC(=O)[C@H](NC(=O)[C@@H]4NC(=O)[C@H]4NC(=O)[C@@H](Cc5ccc(c(Cl)c5)O3)NC(=O)[C@H](N)c3ccc(O)c(c3)Oc3cc(O)cc4c3)c3ccc(O)c(c3)-c3c(O[C@H]4O[C@H](CO)[C@@H](O)[C@H](O)[C@@H]4O)cc(O)cc3[C@@H](C(=O)O)NC2=O)O[C@H](CO)[C@@H](O)[C@@H]1O
inactive

Field: outcome | Entry: O=C(O)c1ccc(NC(=O)[C@H](Cc2ccc(O)cc2)NC(=O)c2ccccc2)cc1
inactive
